tested on: Helicobacter pylori; assay: MIC50/MIC90 versus Helicobacter pylori by agar dilution technique at neutral pH; type: cell-based; settings: Helicobacter pylori; eighteen isolates; neutral pH (agar pH 7.2); read-out: MIC90
Assay Metric: MIC90
Param answer (str): number followed by unit.

Please review the entries below; each comes with its answer.
- Compound: "Oc1c(I)cc(Cl)c2cccnc12 [Clioquinol, 5-chloro-7-iodo-8-hydroxy-quinolone]"
  Data Value: "16 µg/mL"
- Compound: "Cc1cc(O)cc(C)c1Cl [PCMX]"
  Data Value: "64 µg/mL"
- Compound: "CCCCCCCCCCCCCCCC[N+](C)(C)Cc1ccccc1 [Cetalkonium Cl]"
  Data Value: "4 µg/mL"

Please supply MIC90 for each of the following items, keeping them in order.
1. COc1ccccc1O [Guaiacol]
2. CCCCC(CC)CN1CN(CC(CC)CCCC)CC(C)(N)C1 (centres unmarked) [Hexetidine]
3. Oc1ccc(Cl)cc1Cc1cc(Cl)ccc1O [Dichlorphen]
4. N=C(NCCCCCCNC(=N)NC(=N)Nc1ccc(Cl)cc1)NC(=N)Nc1ccc(Cl)cc1 [Hibitane]
5. CCS(=O)(=O)CCn1c([N+](=O)[O-])cnc1C [Tinidazole]

["64 µg/mL", "16 µg/mL", "16 µg/mL", "32 µg/mL", "16 µg/mL"]
